Exercise: for every item that follows, state its recorded EC50.
target: HKU24 HR2 peptide (HKU24); test: peptide ELISA
Provide only the numeric value, understood in µg/mL.

Q: Consider the binder hr2.017 (antibody, V domains shown) VH: EVQLVESGGGLVQPGGSLRLSCAVSGFAFSSSWMHWIRQAPGRGLVWVSRINRDGSTTDYADSVKGRFTISRDNAKATLYLQMNSLRAEDTAVYYCATMGFDYWGQGALVTVSS VL: DIVMTQSPDSLAVSLGERATINCKSSQNVLYSSNNKNHLSWYQQKPGQPPKLLIYWASTRKSGVPDRFSGSGSGTDFTLTINSLQAEDVAVYYCQQYFSTPNTFGQGTKLEIK . State its measured EC50.
A: 0.0176

Q: Consider the binder hr2.021 (antibody, V domains shown) VH: QVQLVQSGAEVKKPGASVKVSCKASEAIFSGSYLHWVRQAPGQGLEWMGIITPSGDKTFYAQRFQGRLTMTRDTSTNTLHMHLSGLNSEDTAMYYCARQADKGGWDYWGQGTLVTVSS VL: EIVLTQSPGTLSLSPGERATLSCRASQSVTSNYVAWYQQKPGQAPRLLIYGASTRATGIPDRFSGGGSGTDFTLTITRLEPEDFAVYYCQQYGSSPPTFTFGPGTKVDIK . State its measured EC50.
A: 0.0195

Q: Consider the binder hr2.023 (antibody, V domains shown) VH: QVQLVQSGAEVKKPGASVKVSCRASENIFSDSYLHWVRQAPGQGLEWMGIITPSGDKTFYAQQFQGRLTMTRDTPTNTLHMDLRGLTSADTAIYYCARQATKGGWDYWGQGTLVTVSS VL: EIVLTQSPGTLSLSPGESATLSCRASQSVTRNYLAWYQQQPGQAPRLLIYGASNRATGVPDRFSGSGSGTDFTLTISRLEPEDFAVYYCQQYGSSPPTFIFGPGTKVDIK . State its measured EC50.
A: 0.0124

Q: Consider the binder hr2.012 (antibody, V domains shown) VH: QVQLVQSGAEVKKPGASVKVSCKASGYTFTSHYIHWVRQAPGQGLEWMGIIKPSGGNTIYAQTFQGRVTMTRDTSTSTVYMELRSLTSDDTAVYYCARDQDHGLQRWGQGTLVTVSS VL: QSVLTQPPSVSAPPGQKVTISCSGSSSNIGNNFVSWYQQLPGTAPKLLIYDNIERPSGIPDRFSGSRSGTSATLGITGLQTGDEADYYCGTWDTSLGAWVFGGGTKVTVL . State its measured EC50.
A: 0.0249

Q: Consider the binder hr2.024 (antibody, V domains shown) VH: QVQLVQSGAEVKKPGASVKVSCKASEDIFTDSYLHWVRQAPGQGLEWMGIITPSGDKTFYAQQFQGRLTMTRDPSTNTLYMFLSGLRSDDTAMYFCARQAEKGGWDYWGHGTLVTVSS VL: EIVLTQSPGTLSLSPGQRATLSCRSSQTITSNYLAWYQQRPGQAPRLLIYGASIRATGIPDRFSGSGSGTDFTLTISRLEPEDFAVYYCQQYGSSPPTFIFGPGTKVDIK . State its measured EC50.
A: 0.0218
